Assay: Plasma protein binding rate, equilibrium dialysis (dog plasma)
Assay type: in vitro ADME, beagle dogs
Settings: d (beagle dog plasma), dialysis 4 hours at 37 °C, read-out: Unbound PPB%

Compound	fraction unbound at 4 h, 2 µM
CC(C)(C)CC(=O)Nc1nc2cc3c(cc2n1C1(C)CCC1)CCC3 [Compound 9]	0.004
CC(C)(C)CC(=O)Nc1nc2c(F)cc(C#N)cn2c1C12CC(C1)C2 [Compound 5]	0.278
CC(C)(C)CC(=O)Nc1nc2c(F)cc(C#N)cn2c1C1=CCCC1 [Compound 3]	0.203
CC(C)(C)CC(=O)Nc1nc2c(F)cc(C#N)cn2c1-c1ccc(OC(F)(F)F)cc1 [Compound 1]	0.046
CC(C)(C)CC(=O)Nc1nc2cc3c(cc2n1C1CCC1)CCC3 [Compound 7]	0.006
